system: expanded OPCs; assay: cells; settings: alamarBlue viability of expanded OPCs, compound at 1 µM, relative to DMSO control
Would you kindly list 1 µM (% DMSO) for each of these compounds?
One number for each entry, in % DMSO.

A selection of reference data follows.
Cn1cc[nH]c1=S | 90.9
Cc1ccc(Cl)c(Nc2ccccc2C(=O)O)c1Cl | 93.6
O=C(N[C@H](CO)[C@H](O)c1ccc([N+](=O)[O-])cc1)C(Cl)Cl | 93.2

Hey, quick one: what's 1 µM (% DMSO) for each of these?
1. O=C(O)c1cc(=O)c2c(OCC(O)COc3cccc4oc(C(=O)O)cc(=O)c34)cccc2o1 [Cromolyn Sodium]
2. CCN(CC)CCOC(=O)C1(C2CCCCC2)CCCCC1
3. CCOC(=O)c1cncn1[C@H](C)c1ccccc1 [Etomidate]
4. c1ccc2c(CC3=NCCN3)cccc2c1
5. CC(C)(S)[C@@H](N)C(=O)O

1. 94.0
2. 87.7
3. 87.4
4. 92.8
5. 87.9

Form: compound = C[C@@H]1C[C@H]2[C@@H]3CCC4=CC(=O)C=C[C@]4(C)[C@@]3(F)[C@@H](O)C[C@]2(C)[C@@]1(O)C(=O)CO [Dexamethasone] ; 1 µM (% DMSO) = 109.4

Cited source for all entries: paper PMC5011342
